Reference source: ChEMBL document CHEMBL3352652

tested on: RAW264.7; test: Inhibition of LPS-induced NO production in mouse RAW264.7 cells compound preincubated for 1 hr before LPS treatment by Griess reaction; type: functional, cell-based
Overview of reported IC50 across a group of compounds:
Numbers only here, please. The scale is µM.

Some compounds with recorded IC50:
> print(dat)
                              smiles.string  value.measured
1  CC1(C)CC[C@]2(C(=O)Cl)CC[C@]3(C)C(=CC[C@@H]4[C@@]5(C)Cc6c([nH]c7ccccc67)C(C)(C)[C@@H]5CC[C@]43C)[C@@H]2C1            22.8
2  CC1(C)CC[C@]2(C(=O)O)CC[C@]3(C)C(=CC[C@@H]4[C@@]5(C)CCC(=O)C(C)(C)[C@@H]5CC[C@]43C)[C@@H]2C1            38.5
3  CC1(C)CC[C@]2(C(=O)O)CC[C@]3(C)C(=CC[C@@H]4[C@@]5(C)Cc6c([nH]c7ccccc67)C(C)(C)[C@@H]5CC[C@]43C)[C@@H]2C1            18.8
4  CC1(C)CC[C@]2(C(=O)Nc3ccc(Br)cc3)CC[C@]3(C)C(=CC[C@@H]4[C@@]5(C)Cc6c([nH]c7ccccc67)C(C)(C)[C@@H]5CC[C@]43C)[C@@H]2C1            25.4
5  CC1(C)CC[C@]2(C(=O)NC3CCCCC3)CC[C@]3(C)C(=CC[C@@H]4[C@@]5(C)Cc6c([nH]c7ccccc67)C(C)(C)[C@@H]5CC[C@]43C)[C@@H]2C1            2.66

Given item `CC(=O)O[C@H]1CC[C@]2(C)[C@H]3CC=C4[C@@H]5CC(C)(C)CC[C@]5(C(=O)O)CC[C@@]4(C)[C@]3(C)CC[C@H]2C1(C)C` , the value recorded as its IC50 is 13.8

Given item `CC1(C)CC[C@]2(C(=O)NN)CC[C@]3(C)C(=CC[C@@H]4[C@@]5(C)Cc6c([nH]c7ccccc67)C(C)(C)[C@@H]5CC[C@]43C)[C@@H]2C1` , the value recorded as its IC50 is 16.5

Given item `CC1(C)CC[C@]2(C(=O)O)CC[C@]3(C)C(=CC[C@@H]4[C@@]5(C)CC[C@H](O)C(C)(C)[C@@H]5CC[C@]43C)[C@@H]2C1` , the value recorded as its IC50 is 41.7

Given item `CC1(C)CC[C@]2(C(=O)O)CC[C@]3(C)C(=CC[C@@H]4[C@@]5(C)CC/C(=N\O)C(C)(C)[C@@H]5CC[C@]43C)[C@@H]2C1` , the value recorded as its IC50 is 39.2

Given item `Cc1ccc(NC(=O)[C@]23CCC(C)(C)C[C@H]2C2=CC[C@@H]4[C@@]5(C)Cc6c([nH]c7ccccc67)C(C)(C)[C@@H]5CC[C@@]4(C)[C@]2(C)CC3)cc1` , the value recorded as its IC50 is 22.6

Given item `Cc1ccc(C)c(NC(=O)[C@]23CCC(C)(C)C[C@H]2C2=CC[C@@H]4[C@@]5(C)Cc6c([nH]c7ccccc67)C(C)(C)[C@@H]5CC[C@@]4(C)[C@]2(C)CC3)c1` , the value recorded as its IC50 is 23.2

----------
Overview of reported pIC50 across a group of compounds:
assay: Cytotoxicity against mouse J774A1 cells assessed as cell viability by MTT assay relative to control; assay type: cell-based; details: J774.A1
Value format note: pIC50 is -log10 of concentration (mol/L); just state the number.

Some compounds with recorded pIC50:
> print(dat)
                              smiles.string  value.measured
1  CC1(C)CC[C@]2(C(=O)O)CC[C@]3(C)C(=CC[C@@H]4[C@@]5(C)CC[C@H](O)C(C)(C)[C@@H]5CC[C@]43C)[C@@H]2C1            4.06
2  CC1(C)CC[C@]2(C(=O)Nc3ccc(Br)cc3)CC[C@]3(C)C(=CC[C@@H]4[C@@]5(C)Cc6c([nH]c7ccccc67)C(C)(C)[C@@H]5CC[C@]43C)[C@@H]2C1            4.06
3  CC(=O)O[C@H]1CC[C@]2(C)[C@H]3CC=C4[C@@H]5CC(C)(C)CC[C@]5(C(=O)O)CC[C@@]4(C)[C@]3(C)CC[C@H]2C1(C)C            4.10
4  CC1(C)CC[C@]2(C(=O)NC3CCCCC3)CC[C@]3(C)C(=CC[C@@H]4[C@@]5(C)Cc6c([nH]c7ccccc67)C(C)(C)[C@@H]5CC[C@]43C)[C@@H]2C1            4.01

Okay, now this compound:
Given item `COC(=O)[C@]12CCC(C)(C)C[C@H]1C1=CC[C@@H]3[C@@]4(C)CCC(=O)C(C)(C)[C@@H]4CC[C@@]3(C)[C@]1(C)CC2` , the value recorded as its pIC50 is 4.08
